Kindly state shrunken log2 fold change for each of the entries shown.
# Test system: Escherichia coli TOP10
# Experimental Details: shrunken log2 fold change of peptide-encoding DNA abundance (4.5 h post-induction vs induction); higher = less antimicrobial activity (less host growth inhibition)
# Condition Summary: time post-induction: 4.5 h; library: site-saturation at positions 5, 18, 19, 20

What value of shrunken log2 fold change has been recorded for this entry: RRIRMRPPRLPRPRPRPSKPPRP
0.0519

What value of shrunken log2 fold change has been recorded for this entry: RRIRERPPRLPRPRPRPQQHPRP
-0.301

What value of shrunken log2 fold change has been recorded for this entry: RRIRERPPRLPRPRPRPWSQPRP
-0.0521

What value of shrunken log2 fold change has been recorded for this entry: RRIRRRPPRLPRPRPRPENQPRP
0.368

What value of shrunken log2 fold change has been recorded for this entry: RRIRCRPPRLPRPRPRPFIPPRP
-0.976

What value of shrunken log2 fold change has been recorded for this entry: RRIRYRPPRLPRPRPRPPDQPRP
-0.145

What value of shrunken log2 fold change has been recorded for this entry: RRIRERPPRLPRPRPRPNYEPRP
-0.182

What value of shrunken log2 fold change has been recorded for this entry: RRIRARPPRLPRPRPRPRSHPRP
0.223

---

# System: Escherichia coli TOP10
# Experimental Details: shrunken log2 fold change of peptide-encoding DNA abundance (4.5 h post-induction vs induction); higher = less antimicrobial activity (less host growth inhibition)
# Condition Summary: time post-induction: 4.5 h; library: site-saturation at positions 5, 18, 19, 20
Each record's class is read off its shrunken log2 fold change using these ranges: low = under -0.2, medium = from -0.2 up to 0.08, high = 0.08 and over

Category of RRIRIRPPRLPRPRPRPRHLPRP :
low

Category of RRIRWRPPRLPRPRPRPGQGPRP :
high

Category of RRIRGRPPRLPRPRPRPWVGPRP :
high

Category of RRIRQRPPRLPRPRPRPGWIPRP :
high

Category of RRIRKRPPRLPRPRPRPKQPPRP :
medium

Category of RRIRIRPPRLPRPRPRPPLYPRP :
low

Category of RRIRERPPRLPRPRPRPTEYPRP :
medium

Category of RRIRFRPPRLPRPRPRPLMQPRP :
medium

Category of RRIRNRPPRLPRPRPRPWSIPRP :
medium

Category of RRIRMRPPRLPRPRPRPMNSPRP :
medium

Category of RRIRCRPPRLPRPRPRPCMLPRP :
low

Category of RRIRHRPPRLPRPRPRPVFSPRP :
high

Category of RRIRERPPRLPRPRPRPCGKPRP :
medium

Category of RRIRTRPPRLPRPRPRPKCPPRP :
high

Category of RRIRQRPPRLPRPRPRPGFIPRP :
low

---

# Test system: Escherichia coli TOP10
# Experimental Details: shrunken log2 fold change of peptide-encoding DNA abundance (4.5 h post-induction vs induction); higher = less antimicrobial activity (less host growth inhibition)
# Condition Summary: time post-induction: 4.5 h; library: site-saturation at positions 5, 18, 19, 20
Kindly state shrunken log2 fold change for each of the entries shown.
Lab note: jot down the number only; don't add units.

What value of shrunken log2 fold change has been recorded for this entry: RRIRIRPPRLPRPRPRPMPCPRP
0.00854

What value of shrunken log2 fold change has been recorded for this entry: RRIRGRPPRLPRPRPRPHDPPRP
0.546

What value of shrunken log2 fold change has been recorded for this entry: RRIRGRPPRLPRPRPRPWIQPRP
0.0532

What value of shrunken log2 fold change has been recorded for this entry: RRIRSRPPRLPRPRPRPVEPPRP
-0.0608

What value of shrunken log2 fold change has been recorded for this entry: RRIRSRPPRLPRPRPRPRQRPRP
0.293

What value of shrunken log2 fold change has been recorded for this entry: RRIRVRPPRLPRPRPRPYMKPRP
-1.04

What value of shrunken log2 fold change has been recorded for this entry: RRIRERPPRLPRPRPRPTNLPRP
-0.0315

What value of shrunken log2 fold change has been recorded for this entry: RRIRWRPPRLPRPRPRPIHEPRP
0.041

---

# Tested on: Escherichia coli TOP10;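 further: peptides expressed intracellularly from a pBAD plasmid library in pooled LB shake-flask culture, induced with 0.3% L-arabinose, DNA abundance read by NGS, three biological replicates, DESeq2 with apeglm shrinkage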
# Experimental Details: shrunken log2 fold change of peptide-encoding DNA abundance (4.5 h post-induction vs induction); higher = less antimicrobial activity (less host growth inhibition)
# Condition Summary: time post-induction: 4.5 h; library: site-saturation at positions 5, 18, 19, 20
Kindly state shrunken log2 fold change for each of the entries shown.
Lab note: jot down the number only; don't add units.

Hi! What's the reported shrunken log2 fold change for RRIRERPPRLPRPRPRPEELPRP on Escherichia coli TOP10?
0.174

Hi! What's the reported shrunken log2 fold change for RRIRCRPPRLPRPRPRPCIHPRP on Escherichia coli TOP10?
-0.415

Hi! What's the reported shrunken log2 fold change for RRIRQRPPRLPRPRPRPQCMPRP on Escherichia coli TOP10?
-0.496

Hi! What's the reported shrunken log2 fold change for RRIRCRPPRLPRPRPRPQMTPRP on Escherichia coli TOP10?
0.218

Hi! What's the reported shrunken log2 fold change for RRIRGRPPRLPRPRPRPRYMPRP on Escherichia coli TOP10?
-0.0195

Hi! What's the reported shrunken log2 fold change for RRIRDRPPRLPRPRPRPVVLPRP on Escherichia coli TOP10?
0.268

Hi! What's the reported shrunken log2 fold change for RRIRIRPPRLPRPRPRPADMPRP on Escherichia coli TOP10?
-0.0222

Hi! What's the reported shrunken log2 fold change for RRIRERPPRLPRPRPRPADGPRP on Escherichia coli TOP10?
-0.0752

Hi! What's the reported shrunken log2 fold change for RRIRKRPPRLPRPRPRPVLFPRP on Escherichia coli TOP10?
0.327

Hi! What's the reported shrunken log2 fold change for RRIRIRPPRLPRPRPRPTDVPRP on Escherichia coli TOP10?
-0.444

Hi! What's the reported shrunken log2 fold change for RRIRGRPPRLPRPRPRPPSMPRP on Escherichia coli TOP10?
0.593

Hi! What's the reported shrunken log2 fold change for RRIRVRPPRLPRPRPRPALHPRP on Escherichia coli TOP10?
0.202

Hi! What's the reported shrunken log2 fold change for RRIRSRPPRLPRPRPRPIWNPRP on Escherichia coli TOP10?
-0.316

Hi! What's the reported shrunken log2 fold change for RRIRVRPPRLPRPRPRPNSYPRP on Escherichia coli TOP10?
-0.309

Hi! What's the reported shrunken log2 fold change for RRIRGRPPRLPRPRPRPLHKPRP on Escherichia coli TOP10?
0.714

Hi! What's the reported shrunken log2 fold change for RRIRCRPPRLPRPRPRPDLWPRP on Escherichia coli TOP10?
0.134

Hi! What's the reported shrunken log2 fold change for RRIRARPPRLPRPRPRPFINPRP on Escherichia coli TOP10?
-0.356

Hi! What's the reported shrunken log2 fold change for RRIRSRPPRLPRPRPRPDKRPRP on Escherichia coli TOP10?
-0.198

Hi! What's the reported shrunken log2 fold change for RRIRTRPPRLPRPRPRPVFMPRP on Escherichia coli TOP10?
-0.25

Hi! What's the reported shrunken log2 fold change for RRIRDRPPRLPRPRPRPKIIPRP on Escherichia coli TOP10?
-0.0166

Hi! What's the reported shrunken log2 fold change for RRIRQRPPRLPRPRPRPIIIPRP on Escherichia coli TOP10?
-0.197

Hi! What's the reported shrunken log2 fold change for RRIRGRPPRLPRPRPRPMYNPRP on Escherichia coli TOP10?
-0.104

Hi! What's the reported shrunken log2 fold change for RRIRGRPPRLPRPRPRPAKVPRP on Escherichia coli TOP10?
0.431

Hi! What's the reported shrunken log2 fold change for RRIRSRPPRLPRPRPRPTPDPRP on Escherichia coli TOP10?
0.441

Hi! What's the reported shrunken log2 fold change for RRIRARPPRLPRPRPRPGYWPRP on Escherichia coli TOP10?
0.363

Hi! What's the reported shrunken log2 fold change for RRIRTRPPRLPRPRPRPYKEPRP on Escherichia coli TOP10?
-0.228

Hi! What's the reported shrunken log2 fold change for RRIRSRPPRLPRPRPRPLCIPRP on Escherichia coli TOP10?
-0.334

Hi! What's the reported shrunken log2 fold change for RRIRTRPPRLPRPRPRPADPPRP on Escherichia coli TOP10?
0.0203

Hi! What's the reported shrunken log2 fold change for RRIRGRPPRLPRPRPRPGLQPRP on Escherichia coli TOP10?
0.236

Hi! What's the reported shrunken log2 fold change for RRIRYRPPRLPRPRPRPQVYPRP on Escherichia coli TOP10?
-0.169

Hi! What's the reported shrunken log2 fold change for RRIRYRPPRLPRPRPRPNYNPRP on Escherichia coli TOP10?
-1.43

Hi! What's the reported shrunken log2 fold change for RRIRDRPPRLPRPRPRPVQNPRP on Escherichia coli TOP10?
0.577
